TESTED SYSTEM: human FSH receptor (Homo sapiens, UniProt P23945)
Construct: host or cells: CHO-K1 (CHO FSH-R 6CRE-Luc, 1D7 cells)
Sequence (P23945 18-695): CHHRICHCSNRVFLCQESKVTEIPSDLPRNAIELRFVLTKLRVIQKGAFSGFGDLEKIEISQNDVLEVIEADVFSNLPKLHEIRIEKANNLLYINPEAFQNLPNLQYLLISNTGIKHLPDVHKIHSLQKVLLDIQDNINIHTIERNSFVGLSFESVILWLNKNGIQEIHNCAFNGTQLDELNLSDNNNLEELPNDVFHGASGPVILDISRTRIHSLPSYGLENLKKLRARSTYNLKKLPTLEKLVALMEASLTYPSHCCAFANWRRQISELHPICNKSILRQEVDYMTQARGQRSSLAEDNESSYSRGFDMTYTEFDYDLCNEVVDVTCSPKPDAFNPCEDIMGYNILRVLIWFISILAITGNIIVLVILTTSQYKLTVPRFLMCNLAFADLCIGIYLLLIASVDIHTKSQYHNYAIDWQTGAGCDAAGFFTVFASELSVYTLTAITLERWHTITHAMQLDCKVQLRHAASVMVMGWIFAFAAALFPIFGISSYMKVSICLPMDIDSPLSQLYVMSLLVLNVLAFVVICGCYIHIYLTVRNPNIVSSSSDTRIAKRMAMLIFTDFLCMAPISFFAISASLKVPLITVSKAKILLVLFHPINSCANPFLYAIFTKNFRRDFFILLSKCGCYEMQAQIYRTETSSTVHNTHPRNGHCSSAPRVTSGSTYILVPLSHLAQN
PROTOCOL DETAILS: FSH receptor-dependent CRE-luciferase reporter gene assay (CHO FSH-R 6CRE-Luc cells)
Type: cell-based
CONDITION NOTES: dose-response format in presence of EC50 of purified human FSH; * n=3, ** n=2 averages
RECORDED ENDPOINT: IC50 (µM)

O=Cc1ccccc1-c1ccc(C(=O)N2Cc3ccc(C(=O)NCc4cccnc4)n3Cc3ccccc32)cc1 : 1.04
O=C(NCc1cccnc1)c1ccc2n1Cc1ccccc1N(C(=O)c1ccc(NCc3ccccc3)nc1)C2 : 10.5
CC(=O)c1ccccc1-c1ccc(C(=O)N2Cc3ccc(C(=O)NCc4cccnc4)n3Cc3ccccc32)cc1C : 0.9
Cc1cccc(C(=O)N2Cc3ccc(C(=O)NCc4cccnc4)n3Cc3ccccc32)c1 : 16.6
CNCc1ccccc1-c1ccc(C(=O)N2Cc3ccc(C(=O)NCc4cccnc4)n3Cc3ccccc32)cc1 : 7.09

I = O=C(NCc1cccnc1)c1ccc2n1Cc1ccccc1N(C(=O)c1ccc(-c3nccs3)cc1)C2
II = Cc1cccnc1-c1ccc(C(=O)N2Cc3ccc(C(=O)NCc4cccnc4)n3Cc3ccccc32)cc1
Exercise: Sorting by IC50 in descending order, would I or II appear first? Give the label of your selection.
Key: I
(I: 5.48 µM, II: 2.92 µM)

I = N#CCc1ccccc1-c1ccc(C(=O)N2Cc3ccc(C(=O)NCc4cccnc4)n3Cc3ccccc32)cc1
II = CCOc1ccccc1-c1ccc(C(=O)N2Cc3ccc(C(=O)NCc4cccnc4)n3Cc3ccccc32)cc1C
III = Cc1ccc(C(=O)N2Cc3ccc(C(=O)NCc4cccnc4)n3Cc3ccccc32)cc1
Exercise: Sort (3 compounds) by IC50: min first. List the labels according to the requested ordering.
Key: I, II, III
(I: 0.29 µM, II: 1.6 µM, III: 18.8 µM)

A = COCc1ccccc1-c1ccc(C(=O)N2Cc3ccc(C(=O)NCc4cccnc4)n3Cc3ccccc32)cc1C
B = CC(O)c1ccccc1-c1ccc(C(=O)N2Cc3ccc(C(=O)NCc4ccc[n+]([O-])c4)n3Cc3ccccc32)cc1 (stereo not drawn)
C = O=C(NCc1cccnc1)c1ccc2n1Cc1ccccc1N(C(=O)c1ccc3ccccc3c1)C2
Exercise: List these items ordered by IC50, big to small. When ranking, write the labels in the order the request describes.
Key: C, B, A
(C: 11.3 µM, B: 1.05 µM, A: 0.6 µM)

###

Structures can show the parent of a compound that is named as a salt.
Measured melting point, listed per entry for reference.

A selection of reference data follows.
CNC(=O)c1ccccc1-c1ccc(C(=O)N2Cc3ccc(C(=O)NCc4cccnc4)n3Cc3ccccc32)cc1 : 221 to 224 °C
COc1cc(C(=O)N2Cc3ccc(C(=O)NCc4c(CO)cnc(C)c4O)n3Cc3ccccc32)ccc1-c1ccccc1C (as salt: hydrochloride) (hydrate or solvate) : 179 °C
CN(C)Cc1ccccc1-c1ccc(C(=O)N2Cc3ccc(C(=O)NCc4cccnc4)n3Cc3ccccc32)cc1 : 95 to 104 °C
N#CCc1ccccc1-c1ccc(C(=O)N2Cc3ccc(C(=O)NCc4cccnc4)n3Cc3ccccc32)cc1 : 105 to 108 °C
O=C(c1ccccc1)c1ccc(C(=O)N2Cc3ccc(C(=O)NCc4cccnc4)n3Cc3ccccc32)cc1 : 211 to 213 °C (dec.)
CN(C)C(=O)c1ccccc1-c1ccc(C(=O)N2Cc3ccc(C(=O)NCc4cccnc4)n3Cc3ccccc32)cc1 : 206 to 207 °C

Exercise: Fill in: melting point of `O=C(NCc1cccnc1)c1ccc2n1Cc1ccccc1N(C(=O)c1ccc(-c3ccccc3CN3CCOCC3)cc1)C2` is ___
Key: 191 to 194 °C

Exercise: # melting point lookup, item `O=C(NCc1cccnc1)c1ccc2n1Cc1ccccc1N(C(=O)c1ccc(-c3ccccc3/C=N/O)cc1)C2`
Key: 165 to 167 °C

Exercise: Bench note: what melting point did `O=C(NCc1cccnc1)c1ccc2n1Cc1ccccc1N(C(=O)c1ccc(-c3ccccc3Cc3nnn[nH]3)cc1)C2` show?
Key: 164 to 167 °C

###

TESTED SYSTEM: human FSH receptor (Homo sapiens, UniProt P23945)
Construct: host or cells: CHO-K1 (CHO FSH-R 6CRE-Luc, 1D7 cells)
Sequence (P23945 18-695): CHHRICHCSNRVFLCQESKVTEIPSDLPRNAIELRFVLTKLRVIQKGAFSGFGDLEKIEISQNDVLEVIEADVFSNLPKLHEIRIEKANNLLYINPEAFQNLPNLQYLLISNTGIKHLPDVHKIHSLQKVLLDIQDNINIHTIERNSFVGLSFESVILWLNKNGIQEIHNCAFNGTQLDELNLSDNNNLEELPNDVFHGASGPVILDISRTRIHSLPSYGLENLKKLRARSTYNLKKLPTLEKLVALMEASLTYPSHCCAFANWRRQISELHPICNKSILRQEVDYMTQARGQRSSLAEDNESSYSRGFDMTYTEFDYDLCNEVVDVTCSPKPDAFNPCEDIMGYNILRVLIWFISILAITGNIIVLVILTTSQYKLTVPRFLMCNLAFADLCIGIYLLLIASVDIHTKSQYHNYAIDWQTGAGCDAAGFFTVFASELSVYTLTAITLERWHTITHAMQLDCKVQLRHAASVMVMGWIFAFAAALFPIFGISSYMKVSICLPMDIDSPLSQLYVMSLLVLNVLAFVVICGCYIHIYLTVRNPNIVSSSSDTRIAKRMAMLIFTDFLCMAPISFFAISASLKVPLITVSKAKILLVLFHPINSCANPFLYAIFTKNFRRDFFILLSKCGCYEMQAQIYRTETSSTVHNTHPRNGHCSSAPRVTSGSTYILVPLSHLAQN
PROTOCOL DETAILS: FSH receptor-dependent CRE-luciferase reporter gene assay (CHO FSH-R 6CRE-Luc cells)
Format: cell-based
CONDITION NOTES: 2-dose format; test concentration in parentheses = 30 μM; percent inhibition of response to EC50 of FSH; read-out: CRE % inhibition
RECORDED ENDPOINT: inhibition at 30 µM (%)

Examples from the recorded data:
N#Cc1ccc(C(=O)N2Cc3ccc(C(=O)NCc4cccnc4)n3Cc3ccccc32)cc1 [Example 90] : 13
CC(C)(C)c1ccc(OCC(=O)N2Cc3ccc(C(=O)NCc4cccnc4)n3Cc3ccccc32)cc1 [Example 135] : 34
O=C(NCc1cccnc1)c1ccc2n1Cc1ccccc1N(C(=O)C1CCCCC1)C2 [Example 149] : 8
Cc1cc(C(=O)N2Cc3ccc(C(=O)NCc4cccnc4)n3Cc3ccccc32)ccc1-c1cccc(Cl)c1 [Example 23] : 36
Cc1cc(C(=O)N2Cc3ccc(C(=O)NCc4cccnc4)n3Cc3ccccc32)ccc1-c1c(C)cccc1C [Example 10] : 25

I = O=C(NCc1cccnc1)c1ccc2n1Cc1ccccc1N(C(=O)c1ccc([N+](=O)[O-])cc1)C2 [Example 99]
II = Cc1cc(C(=O)N2Cc3ccc(C(=O)NCc4cccnc4)n3Cc3ccccc32)ccc1-c1ccc(Cl)c(Cl)c1 [Example 25]
III = O=C(NCc1cccnc1)c1ccc2n1Cc1ccccc1N(C(=O)c1cccnc1)C2 [Example 124]
Exercise: Number of molecules to sort: 3. Sort criterion: inhibition at 30 µM, ascending. List the labels in the requested order.
Key: III, II, I

###

TESTED SYSTEM: UniProt P23945
PROTOCOL DETAILS: cAMP accumulation (RIA) in CHO-3D2 cells (hFSH-R), hFSH-induced
CONDITION NOTES: inhibition of cAMP accumulation induced by hFSH at EC20, CHO-3D2 cells
pIC50: −log10 of the molar value.
RECORDED ENDPOINT: pIC50

Example results:
O=C(NCc1cccnc1)c1ccc2n1Cc1ccccc1N(C(=O)c1ccc(OC(F)(F)F)cc1)C2 [Example 85] : 5.96
Cc1cc(C(=O)N2Cc3ccc(C(=O)NCc4cccnc4)n3Cc3ccccc32)ccc1-c1ccccc1C(F)(F)F [Example 5] : 5.82
CCNC(=O)Cc1ccccc1-c1ccc(C(=O)N2Cc3ccc(C(=O)NCc4cccnc4)n3Cc3ccccc32)cc1 [Example 66] : 6.09

a = CNC(=O)Cc1ccccc1-c1ccc(C(=O)N2Cc3ccc(C(=O)NCc4cccnc4)n3Cc3ccccc32)cc1 [Example 39]
b = Cc1cc(C(=O)N2Cc3ccc(C(=O)NCc4cccnc4)n3Cc3ccccc32)ccc1I [Example 74]
c = CCN(CC)c1ccc(C(=O)N2Cc3ccc(C(=O)NCc4cccnc4)n3Cc3ccccc32)cc1 [Example 102]
d = O=C(NCc1cccnc1)c1ccc2n1Cc1ccccc1N(C(=O)c1ccc(-c3ccccc3CN3CCOCC3)cc1)C2 [Example 43]
Exercise: Task field, ranking: reported pIC50, descending order. Put the labels in the requested order and write them down.
Key: d, a, c, b
